Each entry below carries its reported IC50.
Test system: PDAC085T
Method summary: Cell viability (CellTiter-Blue), IC50 on PDAC085T
Type: cell-based, human
Experimental parameters: Homo sapiens, 72 h treatment
Could you give me the number in µM? Just the number is fine.

The cases that follow already have their IC50 on record.
{"Compound": "C#CCN[C@H]1C=C[C@]2(O[C@H]([C@@H](CC)C(=O)[C@@H](C)[C@@H](O)[C@H](C)[C@@H]3O[C@@H]([C@@H](CC)C(=O)OC4O[C@@H]5O[C@]6(C)CC[C@H]7[C@H](C)CC[C@@H]([C@H]4C)[C@@]57OO6)CC[C@@H]3C)[C@@H](C)C[C@H]2C)O[C@@]12CC[C@@](C)([C@H]1CC[C@](O)(CC)[C@H](C)O1)O2 (stereo partly drawn)", "Test result": 0.36}
{"Compound": "C#CCN[C@@H]1C=C[C@]2(O[C@H]([C@@H](CC)C(=O)[C@@H](C)[C@@H](O)[C@H](C)[C@@H]3O[C@@H]([C@@H](CC)C(=O)OC4O[C@@H]5O[C@]6(C)CC[C@H]7[C@H](C)CC[C@@H]([C@H]4C)[C@@]57OO6)CC[C@@H]3C)[C@@H](C)C[C@H]2C)O[C@@]12CC[C@@](C)([C@H]1CC[C@](O)(CC)[C@H](C)O1)O2 (stereo partly drawn) [MA-I-062, Ironomycin-dihydroartemisinin prodrug]", "Test result": 1.17}

Would you kindly look at the next entry?
Query: Lab note: need IC50 with PDAC085T for entry CC[C@@H](C(=O)[C@@H](C)[C@@H](O)[C@H](C)[C@@H]1O[C@@H]([C@@H](CC)C(=O)OC2O[C@@H]3O[C@]4(C)CC[C@H]5[C@H](C)CC[C@@H]([C@H]2C)[C@@]35OO4)CC[C@@H]1C)[C@H]1O[C@]2(C=C[C@@H](O)[C@]3(CC[C@@](C)([C@H]4CC[C@](O)(CC)[C@H](C)O4)O3)O2)[C@H](C)C[C@@H]1C (stereo partly drawn) [MA-I-023, Salinomycin-dihydroartemisinin prodrug] , please look it up.
Response: 3.32
